biological target: Estrogen receptor (Homo sapiens) (UniProt P03372); experiment: ERα coactivator peptide binding inhibitors, primary screen, biochemical, LOPAC library, TR-FRET (AID 694); conditions: TR-FRET ERalpha-coactivator peptide binding, inhibition, at 15 µM, stronger effect = higher value;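 further: receptor was agonist-bound with estradiol present during the assay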
Sequence (P03372 whole entry, looked up): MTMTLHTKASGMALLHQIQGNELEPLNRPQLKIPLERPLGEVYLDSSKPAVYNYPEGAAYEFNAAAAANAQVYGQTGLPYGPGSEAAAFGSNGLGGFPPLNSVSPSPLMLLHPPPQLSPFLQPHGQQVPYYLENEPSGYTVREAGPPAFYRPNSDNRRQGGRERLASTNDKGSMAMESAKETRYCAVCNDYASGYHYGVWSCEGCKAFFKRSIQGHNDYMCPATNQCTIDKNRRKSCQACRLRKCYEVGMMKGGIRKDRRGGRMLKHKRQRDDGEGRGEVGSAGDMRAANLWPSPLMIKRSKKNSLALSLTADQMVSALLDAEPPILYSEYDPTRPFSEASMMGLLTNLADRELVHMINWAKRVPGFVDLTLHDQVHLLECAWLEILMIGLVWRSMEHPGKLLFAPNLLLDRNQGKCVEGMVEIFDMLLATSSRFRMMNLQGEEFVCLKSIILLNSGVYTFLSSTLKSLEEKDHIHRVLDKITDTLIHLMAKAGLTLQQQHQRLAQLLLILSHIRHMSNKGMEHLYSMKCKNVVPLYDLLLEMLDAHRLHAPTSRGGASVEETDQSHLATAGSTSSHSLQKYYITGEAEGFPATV
Among all 1,300 compounds or so, about 25 (2%) were called active. This excerpt belongs to a sample that is enriched for actives.
The reader will find reported inhibition values listed item by item below.
measured.attribute: inhibition

>>> result("CC[C@@H](CO)NC(=O)[C@@H]1C=C2c3cccc4[nH]cc(c34)C[C@H]2N(C)C1")
"0.61%"
>>> result("CCCN(CCC)[C@@H]1CCc2ccc(O)cc2C1")
"3.7%"
>>> result("C[C@@H]1O[C@H](C[N+](C)(C)C)CS1")
"5.81%"
>>> result("N[C@@H](Cn1cc(I)c(=O)[nH]c1=O)C(=O)O")
"3.65%"
>>> result("C=CCN1CCC2(C)c3cc(O)ccc3CC1C2C (centres undefined)")
"-3.04%"
>>> result("CN(N=O)c1cc(O)ccc1O")
"95.4%"
>>> result("CCCN(CCC)CCc1ccc(O)c(O)c1")
"5.4%"
>>> result("CCCN(CCC)C1CCc2ccc(O)cc2C1 (centres undefined)")
"3.52%"
>>> result("NC(Cc1cc(O)c(O)cc1O)C(=O)O (centres undefined)")
"100%"
>>> result("CO[C@H]1CC=C2CCN3CCC4=C(CC(=O)OC4)[C@]23C1")
"3.57%"
>>> result("COC(=O)c1cc2c(cn1)[nH]c1ccccc12")
"2.65%"
>>> result("Fc1ccc(C(OCCN2CCN(CCCc3ccccc3)CC2)c2ccc(F)cc2)cc1")
"-2.51%"
>>> result("N[C@@H](CCl)C(=O)O")
"-4.18%"
>>> result("c1ccc2c(N3CCNCC3)cccc2c1")
"2.78%"

###

biological target: Estrogen receptor (Homo sapiens); assay: ERα coactivator peptide binding inhibitors, primary screen, biochemical, LOPAC library, TR-FRET (AID 694); settings: TR-FRET ERalpha-coactivator peptide binding, at 45 µM;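 further: receptor was agonist-bound with estradiol present during the assay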
Out of some 1,300 compounds screened, about 25 (2%) were called active. The rule behind the calls is not given here. This is one part of a sample in which actives are shown more often than they occur.
Classes used: active, inactive

>>> assigned_category("NC(Cc1cc(O)c(O)cc1O)C(=O)O (stereo not given)")
"active"
>>> assigned_category("CN1C[C@@H](CS(=O)(=O)N(C)C)C[C@@H]2c3cccc4c3c(cn4C)C[C@H]21")
"inactive"
>>> assigned_category("N[C@@H](Cn1cc(I)c(=O)[nH]c1=O)C(=O)O")
"inactive"
>>> assigned_category("C[C@@H]1O[C@H](C[N+](C)(C)C)CS1")
"inactive"
>>> assigned_category("CN(N=O)c1cc(O)ccc1O")
"active"
>>> assigned_category("COC(=O)c1cc2c(cn1)[nH]c1ccccc12")
"inactive"
>>> assigned_category("Fc1ccc(C(OCCN2CCN(CCCc3ccccc3)CC2)c2ccc(F)cc2)cc1")
"inactive"
>>> assigned_category("CCCN(CCC)C1CCc2ccc(O)cc2C1 (stereo not given)")
"inactive"
>>> assigned_category("O=[N+]([O-])c1ccc(O[C@@H]2O[C@H](CO)[C@@H](O)[C@H](O)[C@H]2F)c([N+](=O)[O-])c1")
"inactive"
>>> assigned_category("CN(N=O)c1ccc(O)c(O)c1")
"active"
